target system: σ2 receptor (Rattus norvegicus)
Construct: (b) σ2 receptor, [^3H]-DTG, PC-12 cells; endogenous in cells; host or cells: PC-12 cells
Sequence (Q5U3Y7 whole entry): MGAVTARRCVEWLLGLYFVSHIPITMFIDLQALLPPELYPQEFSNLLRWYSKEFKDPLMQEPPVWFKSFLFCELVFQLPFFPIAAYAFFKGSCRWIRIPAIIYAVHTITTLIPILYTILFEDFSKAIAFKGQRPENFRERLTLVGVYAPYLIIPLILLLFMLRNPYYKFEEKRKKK
test name: Radioligand binding at σ2 receptor ([3H]-DTG, NIMH PDSP)
conditions: [3H] DTG; PC12 cells; mean ± SEM, three independent experiments
pKi: −log10 of the molar value.
endpoint: pKi

>>> print(df.to_string())
                                   compound  readout_value
0  Cl.Clc1cccc(OCc2cc(OCCNC3CCC3)no2)c1 [Compound 29]           7.19
1  CN(CCOc1cc(COc2ccc(F)cc2)on1)C1CCC1.Cl [Compound 18]           7.11
2  CN(CCOc1cc(COc2cccc(Br)c2)on1)C1CCC1.Cl [Compound 19]           6.98
3  CN(CCOc1cc(COc2cccc(C(F)(F)F)c2)on1)C1CCC1.Cl [Compound 26]           7.42
4  CN(CCOc1cc(COc2ccc(F)c(Cl)c2)on1)C1CCC1.Cl [Compound 25]           7.49
5  Cc1cccc(OCc2cc(OCCN(C)C3CCC3)no2)c1.Cl [Compound 27]           6.91
6  CN(CCOc1cc(COc2cc(Cl)cc(Cl)c2)on1)C1CCC1.Cl [Compound 24]           7.64
